// data source = patent US11046699B2

Target: GCN2 (Homo sapiens)
Sequence (Q9P2K8 whole entry): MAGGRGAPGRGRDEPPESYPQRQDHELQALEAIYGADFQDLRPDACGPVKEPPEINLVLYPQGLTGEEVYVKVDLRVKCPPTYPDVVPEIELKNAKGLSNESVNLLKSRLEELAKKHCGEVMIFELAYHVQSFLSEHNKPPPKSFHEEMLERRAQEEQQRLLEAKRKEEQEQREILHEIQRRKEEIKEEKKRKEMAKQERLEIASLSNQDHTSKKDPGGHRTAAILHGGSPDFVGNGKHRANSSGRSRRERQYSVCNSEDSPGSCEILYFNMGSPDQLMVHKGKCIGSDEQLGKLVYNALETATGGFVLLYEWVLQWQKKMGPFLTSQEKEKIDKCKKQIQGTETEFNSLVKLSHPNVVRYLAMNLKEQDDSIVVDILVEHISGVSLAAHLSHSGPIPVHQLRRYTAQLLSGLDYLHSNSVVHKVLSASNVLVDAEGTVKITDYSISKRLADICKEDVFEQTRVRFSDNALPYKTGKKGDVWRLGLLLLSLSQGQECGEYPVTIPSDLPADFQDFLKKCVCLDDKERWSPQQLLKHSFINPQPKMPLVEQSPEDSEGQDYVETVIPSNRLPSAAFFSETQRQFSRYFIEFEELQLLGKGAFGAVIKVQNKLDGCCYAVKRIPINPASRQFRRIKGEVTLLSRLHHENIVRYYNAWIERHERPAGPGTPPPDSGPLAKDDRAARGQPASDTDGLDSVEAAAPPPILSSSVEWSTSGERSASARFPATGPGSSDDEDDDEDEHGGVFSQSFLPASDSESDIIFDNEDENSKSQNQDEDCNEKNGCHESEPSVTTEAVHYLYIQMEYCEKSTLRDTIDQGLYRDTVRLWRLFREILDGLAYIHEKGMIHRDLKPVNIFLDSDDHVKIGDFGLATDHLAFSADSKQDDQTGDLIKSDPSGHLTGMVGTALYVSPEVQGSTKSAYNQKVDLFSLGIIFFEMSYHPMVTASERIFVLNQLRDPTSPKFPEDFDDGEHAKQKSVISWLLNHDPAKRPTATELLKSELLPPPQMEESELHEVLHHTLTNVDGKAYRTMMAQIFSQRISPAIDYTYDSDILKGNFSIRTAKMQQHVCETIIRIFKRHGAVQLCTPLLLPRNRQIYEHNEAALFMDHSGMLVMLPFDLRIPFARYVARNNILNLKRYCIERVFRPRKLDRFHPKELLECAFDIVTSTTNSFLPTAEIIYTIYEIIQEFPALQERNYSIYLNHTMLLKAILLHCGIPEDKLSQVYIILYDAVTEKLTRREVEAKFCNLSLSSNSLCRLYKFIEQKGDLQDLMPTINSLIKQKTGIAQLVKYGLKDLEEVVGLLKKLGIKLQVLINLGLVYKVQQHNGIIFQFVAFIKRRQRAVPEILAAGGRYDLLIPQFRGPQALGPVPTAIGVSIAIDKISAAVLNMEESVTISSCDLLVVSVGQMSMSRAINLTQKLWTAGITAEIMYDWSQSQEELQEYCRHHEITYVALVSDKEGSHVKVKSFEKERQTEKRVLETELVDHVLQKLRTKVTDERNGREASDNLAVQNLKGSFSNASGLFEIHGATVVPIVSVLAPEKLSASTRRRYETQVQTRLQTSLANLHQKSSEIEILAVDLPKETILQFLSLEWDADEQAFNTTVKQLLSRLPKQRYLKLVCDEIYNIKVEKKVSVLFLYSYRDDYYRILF
Assay: GCN2 enzymatic endpoint assay: phosphorylation of GFP-eIF2α measured by TR-FRET (Lanthascreen)
Assay type: biochemical
Conditions: tested as described in Example 77; compound and/or hydrochloride, dihydrochloride or trifluoroacetic acid salt; read-out: IC 50 Activity
pIC50: −log10 of the molar value.
# pIC50 values compiled below

Previously resolved entries follow.
[[record]]
compound = "Cn1ccnc1[C@@H]1CC[C@@H](Nc2ncc3c(Br)nn(-c4ccc5ncccc5c4)c3n2)C1 (relative stereo)"
readoutkind = "pIC50"
measurement = "6.70 to 7.60"

[[record]]
compound = "CNC(=O)[C@]1(C)CC[C@@H](Nc2ncc3c(Br)nn(-c4ccc5c(c4)CS(=O)(=O)C5)c3n2)C1"
readoutkind = "pIC50"
measurement = "6.70 to 7.60"

[[record]]
compound = "CNC(=O)[C@]1(C)CC[C@@H](Nc2ncc3c(Br)nn(-c4cc(Cl)cc(CCO)c4)c3n2)C1"
readoutkind = "pIC50"
measurement = "> 7.60"

[[record]]
compound = "CNC(=O)[C@]1(C)CC[C@@H](Nc2ncc3c(Br)nn(-c4ccc(-c5ncco5)c(CNCC(F)F)c4)c3n2)C1"
readoutkind = "pIC50"
measurement = "6.70 to 7.60"

[[record]]
compound = "CNC(=O)[C@@H]1CC[C@@H](Nc2ncc3c(Br)nn(-c4cc(Cl)cc(CO)c4)c3n2)C1"
readoutkind = "pIC50"
measurement = "6.70 to 7.60"

[[record]]
compound = "CNC(=O)[C@]1(C)CC[C@@H](Nc2ncc3c(Br)nn(-c4cc(Cl)cc(C(=O)N(C)C5CNC5)c4)c3n2)C1"
readoutkind = "pIC50"
measurement = "6.70 to 7.60"

[[record]]
compound = "O[C@@H]1CCC[C@@H]1Nc1ncc2c(Br)nn(-c3cc(F)c4ncccc4c3)c2n1"
readoutkind = "pIC50"
measurement = "6.70 to 7.60"

[[record]]
compound = "CNC(=O)[C@]1(C)CC[C@@H](Nc2ncc3c(Br)nn(-c4cc(F)c5nc(C)cc(Cl)c5c4)c3n2)C1"
readoutkind = "pIC50"
measurement = "6.70 to 7.60"

[[record]]
compound = "CNC(=O)CC1CC(Nc2ncc3c(Br)nn(-c4ccc(-c5nnc(C)s5)cc4)c3n2)C1 (stereo not shown)"
readoutkind = "pIC50"
measurement = "6.70 to 7.60"

[[record]]
compound = "CN(CC(N)=O)C(=O)[C@@H]1CC[C@@H](Nc2ncc3c(Br)nn(-c4cc(F)c5ncccc5c4)c3n2)C1"
readoutkind = "pIC50"
measurement = "6.70 to 7.60"


[ask] Consider the compound shown here: "C[C@@]1(C(=O)N2CNC(=O)C2)CC[C@@H](Nc2ncc3c(Br)nn(-c4cc(F)c5ncccc5c4)c3n2)C1" What is its recorded pIC50?
[reply] > 7.60
